// reported melting point per item

Example entries begin here.
O=C(Nc1ccc(-n2nc(C(F)(F)F)cc2C2CC2)c(F)c1)C1(c2ccccc2)CCC1
72 to 76 °C
CC(C)(C)N(NC(=O)c1ccccc1)C(=O)c1ccco1
155 to 175 °C
COCn1ccnc1C(O)(c1ccc(F)cc1)c1ccc(F)cc1
133 °C
COC(=O)c1ccc(Oc2c(C)n(CC(=O)O)c3ccc(Cl)cc23)cc1
196 to 197 °C
COCc1nnc(-c2cccnc2)n1-c1c(Cl)c(Cl)cc2[nH]c(=O)c(=O)[nH]c12
222 to 224 °C

Query block: Fill in melting point for record CCSc1cc(C)nc(SCC)c1NC(=O)CCCCSc1nc2cccc(C(F)(F)F)c2o1
Result block: 155 to 156 °C

Query block: Fill in melting point for record CN1C(=O)CC(c2ccccc2)C1C(O)C#Cc1ccccc1 (stereo not given)
Result block: 152 to 153 °C

Query block: Fill in melting point for record Nc1cc(S)c(Cl)cc1F
Result block: 64.5 to 66 °C

Query block: Fill in melting point for record Cc1ccccc1CC1CNC(=O)O1 (stereo not given)
Result block: 121 to 122 °C

Query block: Fill in melting point for record OC(Cn1cncn1)(Cn1cnc(C=Cc2ccc(C(F)(F)F)cc2)n1)c1ccc(OC(F)(F)F)cc1 (stereo not given)
Result block: 193 to 195 °C

Query block: Fill in melting point for record COc1cc(N)cc(C#N)c1
Result block: 81 to 85 °C

Query block: Fill in melting point for record NS(=O)(=O)c1ccc(NN=C2C(=O)Nc3ccc(C(=O)NCc4ccncc4)cc32)cc1
Result block: 211 to 215 °C

Query block: Fill in melting point for record Cc1c(Cl)cccc1S(=O)(=O)Nc1nc(CC(=O)N2CCSCC2)cs1
Result block: 103 to 106 °C
